# Tested System: human 5-HT7b receptor (Homo sapiens)
# Construct: expressed in transfected cells
# Sequence (P34969 1-432): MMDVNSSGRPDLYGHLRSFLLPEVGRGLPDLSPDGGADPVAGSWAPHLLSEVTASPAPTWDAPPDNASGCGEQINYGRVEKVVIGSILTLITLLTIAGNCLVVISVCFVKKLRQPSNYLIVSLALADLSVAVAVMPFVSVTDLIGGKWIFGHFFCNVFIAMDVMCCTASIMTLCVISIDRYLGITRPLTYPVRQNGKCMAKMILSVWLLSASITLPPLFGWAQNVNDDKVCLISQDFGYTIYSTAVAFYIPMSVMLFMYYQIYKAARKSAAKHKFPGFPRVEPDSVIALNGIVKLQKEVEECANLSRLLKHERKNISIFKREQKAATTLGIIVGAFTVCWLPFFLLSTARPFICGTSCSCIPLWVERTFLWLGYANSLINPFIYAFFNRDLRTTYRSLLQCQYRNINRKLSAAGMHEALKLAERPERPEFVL
# Assay Info: GPCR radioligand binding assay, [3H]-5-CT displacement, HEK293 membranes
# Condition Set: 5-HT7; average, values below 0 and above 100% were set as 0 and 100; read-out: %inh 5-HT7 corrected*
Readings of inhibition at 10 µM for the listed molecules
Field: numeric (%). Do not append units.

As a guide, the following entries are already answered.
>  <Molecule>
c1cnc2cccnc2c1 [SX002]

>  <Scale Unit>
%

>  <Recorded Measurement>
35

$$$$
>  <Molecule>
Cc1cc2ccccc2nc1N [SX001]

>  <Scale Unit>
%

>  <Recorded Measurement>
1.66

$$$$

Exam item: Determine from records and report inhibition at 10 µM for O=C1NC(=O)/C(=C\c2cccs2)N1 [H12]
Marked response: 3.77

Exam item: Give the reported inhibition at 10 µM for this molecule. CC1CCc2sc(C(=O)O)cc2C1 (stereo not shown) [SX045]
Marked response: 4.44

Exam item: Answer with reported inhibition at 10 µM of O=C(O)C1CCN(c2ncccn2)CC1 [E9]
Marked response: 0

Exam item: Look up and state reported inhibition at 10 µM for Nc1nnc(-c2cccs2)[nH]1 [D3]
Marked response: 0

Exam item: Provide measured inhibition at 10 µM value, entry: O=C(c1ccccc1F)N1CCNCC1 [E12]
Marked response: 0

Exam item: Look up and state reported inhibition at 10 µM for CS(=O)(=O)Nc1ccc(C(=O)O)cc1 [SX084]
Marked response: 9

Exam item: Consider the molecule Oc1ccccc1N1CCCCC1 [A12] and give its recorded inhibition at 10 µM.
Marked response: 0

Exam item: Let me know recorded inhibition at 10 µM for CC(=O)c1sc(-c2ccc(O)cc2)nc1C [E1] , thanks.
Marked response: 43

Exam item: Consider the molecule c1cnc2ncccc2c1 [SX003] and give its recorded inhibition at 10 µM.
Marked response: 34

Exam item: Supply reported inhibition at 10 µM belonging to this molecule: Cn1c(N)nc2ccccc21 [A6]
Marked response: 0

Exam item: Please report the measured inhibition at 10 µM for O=C(O)c1cnc(-c2ccccc2)s1 [F3]
Marked response: 0

Exam item: Check the records and state inhibition at 10 µM for NC(=O)N1CCC(C(=O)O)CC1 [SX048]
Marked response: 0

Exam item: Answer with reported inhibition at 10 µM of c1ccc(Nc2nncs2)cc1 [D8]
Marked response: 0

Exam item: Item Nc1nnc2ccccn12 [SX005] : provide inhibition at 10 µM
Marked response: 0

---

# inhibition at 10 µM values compiled below
# Tested System: human 5-HT1A receptor (Homo sapiens, UniProt P08908)
# Construct: expressed in transfected cells
# Sequence (P08908 1-422): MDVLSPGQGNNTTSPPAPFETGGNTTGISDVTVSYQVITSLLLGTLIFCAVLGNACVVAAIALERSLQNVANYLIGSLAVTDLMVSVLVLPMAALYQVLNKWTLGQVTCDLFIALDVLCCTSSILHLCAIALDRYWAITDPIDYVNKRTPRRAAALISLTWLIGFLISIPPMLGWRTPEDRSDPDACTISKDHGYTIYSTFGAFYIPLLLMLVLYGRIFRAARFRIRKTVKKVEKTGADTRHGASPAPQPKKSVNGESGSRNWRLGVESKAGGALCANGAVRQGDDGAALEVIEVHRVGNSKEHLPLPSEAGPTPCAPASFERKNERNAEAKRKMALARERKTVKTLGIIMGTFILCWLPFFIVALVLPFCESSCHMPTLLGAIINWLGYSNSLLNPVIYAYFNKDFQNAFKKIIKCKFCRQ
# Assay Info: GPCR radioligand binding assay, [3H]-8-OH-DPAT displacement, HEK293 membranes
# Condition Set: 5-HT1A; average, values below 0 and above 100% were set as 0 and 100; read-out: %inh 5-HT1A corrected*
Number in %, nothing else.

>  <Compound>
Cc1cc2ccccc2nc1N

>  <inhibition at 10 µM (%)>
0

$$$$
>  <Compound>
O=C1NC(=O)/C(=C\c2cccs2)N1

>  <inhibition at 10 µM (%)>
3.44

$$$$
>  <Compound>
Oc1ccccc1N1CCCCC1

>  <inhibition at 10 µM (%)>
0

$$$$
>  <Compound>
O=C(O)C1CCN(c2ncccn2)CC1

>  <inhibition at 10 µM (%)>
3

$$$$

Exam item: Write down inhibition at 10 µM measured for item CC1CCc2sc(C(=O)O)cc2C1 (stereo not drawn)
Marked response: 0

Exam item: // Input: c1cnc2cccnc2c1 . Output its inhibition at 10 µM only.
Marked response: 0

Exam item: Fill in reported inhibition at 10 µM for this entry: Nc1nnc2ccccn12
Marked response: 0

Exam item: Answer with the recorded inhibition at 10 µM for the compound listed here: NC(=O)N1CCC(C(=O)O)CC1
Marked response: 0.751

Exam item: For c1cnc2ncccc2c1 , write its inhibition at 10 µM.
Marked response: 22
